- Test system: SR leukemia
- assay-explanation: NCI-60 one-dose screen, 48 h (100 = growth as untreated, 0 = no growth, -100 = all killed)
- stated-conditions: 10 µM unless noted
The panel holds about 83,000 compounds, 20% with a hit somewhere; the sample as a whole holds those more often.
measurement-kind: growth (%)
The reply should contain only the number, in %.

> print(dat)
                                   compound  unit.label  measured
1  Clc1ccc(-c2nc3c4c(-c5ccccc5)c(-c5ccccc5)n(Cc5ccccc5)c4ncn3n2)cc1           %      5.49
2      COc1cccc(NC(=O)c2ccc(NC(=O)CCl)s2)c1           %    -0.752
3  COc1ccc(N=Nc2c(N)nn3c(-c4ccc(F)cc4)ccnc23)cc1           %      3.18
4    CCc1ccccc1NC(=O)N/C(N)=N/c1nc2ccccc2s1           %      7.38
5  CCCCCCCCc1ccc(C(=O)Nc2ccc(C)c(OP(=O)(O)O)c2)cc1           %      81.9

Field request: growth | item: "COC(=O)c1c(C(=O)OC)c2ccc3c4ccccc4ccc3n2c1C(=O)OC"
94.6

Next up: "COc1ccc(NC(=O)CSc2nnc(-c3ccc(-c4nc5ccc(Cl)cc5[nH]4)cc3)o2)cc1"
18.5

Next up: CCOc1ccccc1[C@H]1C(C(=O)c2ccc(Cl)cc2)C2(N[C@@H]1c1ccccc1)C(=O)Nc1ccccc12 (stereo not given in full)
-38

Next up: CN1C(=O)C(O)(CC(=O)c2cc3ccccc3oc2=O)c2ccccc21 (stereo not given)
71.3

Next up: "O=C(CSc1nnc(-c2ccc(-c3nc4ccccc4[nH]3)cc2)o1)Nc1ccc(Cl)cc1"
2.31
